- system under test: UniProt P53341
- Sequence (P53341 whole entry): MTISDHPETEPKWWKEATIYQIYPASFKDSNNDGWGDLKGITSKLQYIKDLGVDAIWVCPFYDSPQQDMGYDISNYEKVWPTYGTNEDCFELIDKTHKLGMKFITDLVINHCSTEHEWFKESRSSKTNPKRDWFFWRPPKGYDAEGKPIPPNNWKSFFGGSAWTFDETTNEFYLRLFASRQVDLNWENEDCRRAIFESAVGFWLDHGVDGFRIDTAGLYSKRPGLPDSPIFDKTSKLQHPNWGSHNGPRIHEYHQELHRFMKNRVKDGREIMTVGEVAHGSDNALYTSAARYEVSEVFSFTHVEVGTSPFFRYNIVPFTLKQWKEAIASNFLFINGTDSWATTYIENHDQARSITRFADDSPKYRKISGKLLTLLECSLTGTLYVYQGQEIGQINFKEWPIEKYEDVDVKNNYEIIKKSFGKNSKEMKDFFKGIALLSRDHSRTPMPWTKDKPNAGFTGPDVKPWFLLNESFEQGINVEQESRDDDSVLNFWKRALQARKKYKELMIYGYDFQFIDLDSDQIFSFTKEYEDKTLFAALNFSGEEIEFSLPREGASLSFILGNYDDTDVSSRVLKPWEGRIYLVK
Counter-ions that a name gives are not always drawn.
measure name: IC50 (µM)

> print(dat)
                                   molecule  result.units  val
1  CC(=O)NC[C@H]1N[C@H](CO)[C@@H](O)[C@@H]1O [4·HCl]            µM  450

----------
- system under test: β-N-Acetylhexosaminidase (Jack bean)
- assay: β-N-Acetylhexosaminidase (Jack bean) inhibition
- Assay type: biochemical
- assay context: β-N-Acetylhexosaminidase (β-GlcNAcase), read-out: IC50
pIC50: −log10 of the molar value. Structures can show the parent of a compound that is named as a salt.
measure name: pIC50

> print(dat)
                                   compound                     system.under.test  measure.name   val
1  CC(=O)NC[C@H]1N[C@H](CO)[C@H](O)[C@H]1O [F-10b]  β-N-Acetylhexosaminidase (Jack bean)         pIC50  4.01
2  CC(=O)NC[C@H]1N[C@@H](CO)[C@H](O)[C@@H]1O [G-10]  β-N-Acetylhexosaminidase (Jack bean)         pIC50  4.59
3  CC(=O)NC[C@@H]1N[C@@H](CO)[C@@H](O)[C@H]1O [C-10]  β-N-Acetylhexosaminidase (Jack bean)         pIC50  3.89
4  CC(=O)NC[C@H]1N[C@@H](CO)[C@@H](O)[C@@H]1O [E-10a]  β-N-Acetylhexosaminidase (Jack bean)         pIC50  5.00
5  CC(=O)NC[C@@H]1N[C@@H](CO)[C@H](O)[C@H]1O [A-10]  β-N-Acetylhexosaminidase (Jack bean)         pIC50  3.69
6  CC(=O)NC[C@H]1N[C@H](CO)[C@H](O)[C@@H]1O [D-10]  β-N-Acetylhexosaminidase (Jack bean)         pIC50  6.92
7  CC(=O)NC[C@H]1N[C@H](CO)[C@@H](O)[C@@H]1O [4·HCl]  β-N-Acetylhexosaminidase (Jack bean)         pIC50  6.68
8  CC(=O)NC[C@@H]1N[C@H](CO)[C@@H](O)[C@H]1O [H-10]  β-N-Acetylhexosaminidase (Jack bean)         pIC50  3.62
9  CC(=O)NC[C@@H]1N[C@@H](CO)[C@@H](O)[C@@H]1O [E-10b]  β-N-Acetylhexosaminidase (Jack bean)         pIC50  3.94

----------
- system under test: β-Glucuronidase (E. coli) (Escherichia coli)
- Construct: purchased Sigma-Aldrich Chemical Co
- assay: β-Glucuronidase (E. coli) inhibition
- Format: biochemical
- assay context: read-out: IC50
Counter-ions that a name gives are not always drawn.
# maps each entry to its inhibition at 1000 µM
measure name: inhibition at 1000 µM

> print(dat)
                                    molecule                         system.under.test    val
 1  CC(=O)NC[C@@H]1N[C@@H](CO)[C@@H](O)[C@H]1O  β-Glucuronidase (E. coli) (Escherichia coli)  < 50%
 2  CC(=O)NC[C@H]1N[C@@H](CO)[C@@H](O)[C@@H]1O [E-10a]  β-Glucuronidase (E. coli) (Escherichia coli)  < 50%
 3  CC(=O)NC[C@@H]1N[C@H](CO)[C@H](O)[C@H]1O [F-10a]  β-Glucuronidase (E. coli) (Escherichia coli)  < 50%
 4  CC(=O)NC[C@@H]1N[C@H](CO)[C@@H](O)[C@H]1O  β-Glucuronidase (E. coli) (Escherichia coli)  < 50%
 5  CC(=O)NC[C@H]1N[C@H](CO)[C@H](O)[C@H]1O [F-10b]  β-Glucuronidase (E. coli) (Escherichia coli)  < 50%
 6  CC(=O)NC[C@@H]1N[C@@H](CO)[C@H](O)[C@H]1O  β-Glucuronidase (E. coli) (Escherichia coli)  < 50%
 7  CC(=O)NC[C@H]1N[C@H](CO)[C@H](O)[C@@H]1O  β-Glucuronidase (E. coli) (Escherichia coli)  < 50%
 8  CC(=O)NC[C@@H]1N[C@@H](CO)[C@@H](O)[C@@H]1O [E-10b]  β-Glucuronidase (E. coli) (Escherichia coli)  < 50%
 9  CC(=O)NC[C@H]1N[C@@H](CO)[C@H](O)[C@@H]1O  β-Glucuronidase (E. coli) (Escherichia coli)  < 50%
10  CC(=O)NC[C@H]1N[C@H](CO)[C@@H](O)[C@@H]1O [4·HCl]  β-Glucuronidase (E. coli) (Escherichia coli)  < 50%

----------
# maps each entry to its inhibition at 1000 µM
- system under test: β-Glucuronidase (E. coli) (Escherichia coli, UniProt P05804)
- Construct: purchased Sigma-Aldrich Chemical Co
- Sequence (P05804 whole entry): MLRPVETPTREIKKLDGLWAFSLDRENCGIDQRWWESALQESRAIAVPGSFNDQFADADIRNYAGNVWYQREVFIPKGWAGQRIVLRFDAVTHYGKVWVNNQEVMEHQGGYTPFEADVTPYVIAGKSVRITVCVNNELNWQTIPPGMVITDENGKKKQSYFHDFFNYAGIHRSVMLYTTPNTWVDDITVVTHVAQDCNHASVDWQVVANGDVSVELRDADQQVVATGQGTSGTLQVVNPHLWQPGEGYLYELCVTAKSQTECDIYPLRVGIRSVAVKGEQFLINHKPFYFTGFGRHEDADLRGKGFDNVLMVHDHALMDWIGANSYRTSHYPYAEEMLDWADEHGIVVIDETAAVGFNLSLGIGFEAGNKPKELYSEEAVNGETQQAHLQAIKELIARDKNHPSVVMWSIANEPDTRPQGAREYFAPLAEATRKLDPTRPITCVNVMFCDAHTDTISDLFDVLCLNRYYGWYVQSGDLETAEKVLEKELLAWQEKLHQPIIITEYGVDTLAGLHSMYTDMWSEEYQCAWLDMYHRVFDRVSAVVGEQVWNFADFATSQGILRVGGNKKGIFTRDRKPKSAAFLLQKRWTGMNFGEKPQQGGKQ
- assay: β-Glucuronidase (E. coli) inhibition
- Format: biochemical
- assay context: 1000 μM, read-out: Inhibition % at 1000 μM
measure name: inhibition at 1000 µM (%)

> print(dat)
                                   compound                         system.under.test  val
1  CC(=O)NC[C@H]1N[C@H](CO)[C@H](O)[C@@H]1O  β-Glucuronidase (E. coli) (Escherichia coli, UniProt P05804)    0
2  CC(=O)NC[C@@H]1N[C@@H](CO)[C@@H](O)[C@H]1O  β-Glucuronidase (E. coli) (Escherichia coli, UniProt P05804)  0.3
3  CC(=O)NC[C@H]1N[C@@H](CO)[C@@H](O)[C@@H]1O [E-10a]  β-Glucuronidase (E. coli) (Escherichia coli, UniProt P05804)    0
4  CC(=O)NC[C@@H]1N[C@H](CO)[C@@H](O)[C@H]1O  β-Glucuronidase (E. coli) (Escherichia coli, UniProt P05804)    0
5  CC(=O)NC[C@@H]1N[C@H](CO)[C@H](O)[C@H]1O [F-10a]  β-Glucuronidase (E. coli) (Escherichia coli, UniProt P05804)    0

----------
- system under test: Amyloglucosidase (A. niger) (Aspergillus niger)
- Construct: purchased Sigma-Aldrich Chemical Co
- Sequence (P69328 25-640): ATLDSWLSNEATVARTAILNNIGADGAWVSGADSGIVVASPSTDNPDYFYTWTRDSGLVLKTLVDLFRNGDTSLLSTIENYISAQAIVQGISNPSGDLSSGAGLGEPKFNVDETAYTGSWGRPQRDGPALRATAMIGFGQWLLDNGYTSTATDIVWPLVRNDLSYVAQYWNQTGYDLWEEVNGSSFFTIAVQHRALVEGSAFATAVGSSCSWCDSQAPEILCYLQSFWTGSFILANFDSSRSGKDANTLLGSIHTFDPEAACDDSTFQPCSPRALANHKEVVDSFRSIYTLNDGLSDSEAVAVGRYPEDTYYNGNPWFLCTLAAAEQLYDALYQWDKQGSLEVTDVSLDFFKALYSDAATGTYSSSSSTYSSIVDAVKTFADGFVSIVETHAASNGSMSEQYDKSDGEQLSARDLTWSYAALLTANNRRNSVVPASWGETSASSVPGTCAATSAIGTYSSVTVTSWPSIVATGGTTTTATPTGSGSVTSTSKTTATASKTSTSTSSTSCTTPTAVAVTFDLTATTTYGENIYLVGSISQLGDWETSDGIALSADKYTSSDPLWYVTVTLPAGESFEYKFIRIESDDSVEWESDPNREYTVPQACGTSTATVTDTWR
- assay: Amyloglucosidase (A. niger) inhibition
- Type: biochemical
- assay context: 1000 μM, read-out: Inhibition % at 1000 μM
Where a name gives a salt, the structure may show the parent alone.
measure name: inhibition at 1000 µM (%)

> print(dat)
                                    molecule   val
 1  CC(=O)NC[C@@H]1N[C@H](CO)[C@H](O)[C@H]1O [F-10a]   2.8
 2  CC(=O)NC[C@H]1N[C@H](CO)[C@H](O)[C@H]1O [F-10b]   5.7
 3  CC(=O)NC[C@H]1N[C@H](CO)[C@@H](O)[C@@H]1O [4·HCl]  40.6
 4  CC(=O)NC[C@@H]1N[C@H](CO)[C@@H](O)[C@H]1O   8.3
 5  CC(=O)NC[C@@H]1N[C@@H](CO)[C@@H](O)[C@@H]1O [E-10b]   6.4
 6  CC(=O)NC[C@@H]1N[C@@H](CO)[C@@H](O)[C@H]1O   1.9
 7  CC(=O)NC[C@H]1N[C@H](CO)[C@H](O)[C@@H]1O   3.8
 8  CC(=O)NC[C@H]1N[C@@H](CO)[C@@H](O)[C@@H]1O [E-10a]     4
 9  CC(=O)NC[C@@H]1N[C@@H](CO)[C@H](O)[C@H]1O   5.5
10  CC(=O)NC[C@H]1N[C@@H](CO)[C@H](O)[C@@H]1O   7.6

----------
Here's what we have: pIC50 numbers for α-Glucosidase (Rice) (Oryza sativa subsp. japonica).
pIC50: −log10 of the molar value. Where a name gives a salt, the structure may show the parent alone.
measure name: pIC50

> print(dat)
                                   compound                         system.under.test  measure.name   val
1  CC(=O)NC[C@@H]1N[C@@H](CO)[C@H](O)[C@H]1O [A-10]  α-Glucosidase (Rice) (Oryza sativa subsp. japonica)         pIC50  3.25
2  CC(=O)NC[C@H]1N[C@H](CO)[C@@H](O)[C@@H]1O [4·HCl]  α-Glucosidase (Rice) (Oryza sativa subsp. japonica)         pIC50  3.00

----------
- system under test: α-Mannosidase (Jack bean) (Canavalia ensiformis, UniProt C0HJB3)
- Construct: purchased Sigma-Aldrich Chemical Co
- Sequence (C0HJB3 whole entry): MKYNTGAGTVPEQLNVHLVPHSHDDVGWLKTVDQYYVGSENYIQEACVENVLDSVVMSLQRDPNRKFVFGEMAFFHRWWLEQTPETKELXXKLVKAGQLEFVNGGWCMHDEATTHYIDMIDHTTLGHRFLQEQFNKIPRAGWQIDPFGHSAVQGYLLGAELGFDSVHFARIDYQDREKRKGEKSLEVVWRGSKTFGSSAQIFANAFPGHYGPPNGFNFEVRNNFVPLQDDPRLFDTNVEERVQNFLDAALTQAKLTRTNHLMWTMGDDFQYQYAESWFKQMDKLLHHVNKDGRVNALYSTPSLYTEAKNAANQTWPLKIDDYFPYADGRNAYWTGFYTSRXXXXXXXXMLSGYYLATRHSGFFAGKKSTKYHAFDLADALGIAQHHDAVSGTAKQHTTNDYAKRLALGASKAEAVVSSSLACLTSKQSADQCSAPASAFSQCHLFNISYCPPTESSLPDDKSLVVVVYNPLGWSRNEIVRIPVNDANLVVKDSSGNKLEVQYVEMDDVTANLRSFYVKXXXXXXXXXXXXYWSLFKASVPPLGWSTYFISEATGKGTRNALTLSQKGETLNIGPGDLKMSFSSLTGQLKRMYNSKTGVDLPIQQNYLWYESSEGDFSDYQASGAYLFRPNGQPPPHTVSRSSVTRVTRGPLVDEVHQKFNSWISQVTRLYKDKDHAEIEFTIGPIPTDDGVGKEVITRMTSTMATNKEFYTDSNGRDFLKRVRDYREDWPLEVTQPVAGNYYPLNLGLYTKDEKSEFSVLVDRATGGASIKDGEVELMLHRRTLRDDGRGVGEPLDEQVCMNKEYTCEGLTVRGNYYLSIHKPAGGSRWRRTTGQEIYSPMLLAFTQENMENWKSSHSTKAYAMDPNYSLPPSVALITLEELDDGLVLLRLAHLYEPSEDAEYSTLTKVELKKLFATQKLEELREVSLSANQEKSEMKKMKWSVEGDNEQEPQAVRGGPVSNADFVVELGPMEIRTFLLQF
- assay: α-Mannosidase (Jack bean) inhibition
- Type: biochemical
- assay context: 1000 μM, read-out: Inhibition % at 1000 μM
Counter-ions that a name gives are not always drawn.
Record Yes whenever inhibition at 1000 µM is at 0.4% or higher; record No when lower.

> print(dat)
                                   compound  category
1  CC(=O)NC[C@@H]1N[C@@H](CO)[C@H](O)[C@H]1O [A-10]        No
2  CC(=O)NC[C@@H]1N[C@@H](CO)[C@@H](O)[C@@H]1O [E-10b]       Yes
3  CC(=O)NC[C@H]1N[C@@H](CO)[C@@H](O)[C@@H]1O [E-10a]       Yes
4  CC(=O)NC[C@@H]1N[C@H](CO)[C@H](O)[C@H]1O [F-10a]        No
5  CC(=O)NC[C@H]1N[C@H](CO)[C@@H](O)[C@@H]1O [4·HCl]        No
6  CC(=O)NC[C@H]1N[C@@H](CO)[C@H](O)[C@@H]1O [G-10]       Yes
7  CC(=O)NC[C@@H]1N[C@H](CO)[C@@H](O)[C@H]1O [H-10]       Yes
8  CC(=O)NC[C@H]1N[C@H](CO)[C@H](O)[C@H]1O [F-10b]       Yes
